Sourced from patent US20230303690A1

Biological target: T1, LAG3 Protein, Human, Recombinant (His Tag) (Sino Biological Catalog No. 16498-H08H) (human, UniProt P18627 23-450)
T1 construct: Bought protein; also called hLAG3-His; LAG3-His; not shown: His tag
T1 sequence (looked up): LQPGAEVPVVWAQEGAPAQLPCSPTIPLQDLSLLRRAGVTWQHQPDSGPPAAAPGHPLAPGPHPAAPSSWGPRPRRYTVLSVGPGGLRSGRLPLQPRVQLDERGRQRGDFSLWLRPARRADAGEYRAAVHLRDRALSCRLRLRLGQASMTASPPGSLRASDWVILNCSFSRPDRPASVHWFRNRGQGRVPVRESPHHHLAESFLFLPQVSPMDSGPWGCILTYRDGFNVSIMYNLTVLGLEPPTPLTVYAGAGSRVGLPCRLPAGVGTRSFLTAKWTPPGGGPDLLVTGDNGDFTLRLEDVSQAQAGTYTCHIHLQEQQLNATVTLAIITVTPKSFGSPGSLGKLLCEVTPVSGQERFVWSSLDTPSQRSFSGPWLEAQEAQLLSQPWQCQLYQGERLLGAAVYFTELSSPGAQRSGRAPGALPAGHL
Test: SPR (Biacore), sdAb captured by anti-human Fc, LAG3-His analyte
METRIC_NAME: log10(koff) (log10 of the value in s⁻¹)
The figures below represent log10 of koff, where koff is stated in s⁻¹.

[
  {
    "BINDER": "sdAb No. 1 (VHH, the tested form was captured by anti-human Fc, its Fc is not described; also called sdAb 1; not shown: Fc part implied by anti-human Fc capture) VHH: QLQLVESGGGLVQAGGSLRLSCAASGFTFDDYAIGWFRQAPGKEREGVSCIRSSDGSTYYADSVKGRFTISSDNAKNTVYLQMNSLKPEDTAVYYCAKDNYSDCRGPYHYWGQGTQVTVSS",
    "METRIC_NAME": "log10(koff)",
    "TEST_RESULT": -7.30
  },
  {
    "BINDER": "sdAb No. 20 (VHH, Fc of the tested form not described; also called sdAb 20; not shown: Fc part implied by anti-human Fc capture) VHH: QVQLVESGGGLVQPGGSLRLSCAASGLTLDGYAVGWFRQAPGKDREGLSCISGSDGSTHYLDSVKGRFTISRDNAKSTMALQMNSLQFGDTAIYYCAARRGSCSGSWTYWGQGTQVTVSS",
    "METRIC_NAME": "log10(koff)",
    "TEST_RESULT": -3.37
  },
  {
    "BINDER": "sdAb No. 17 (VHH, Fc of the tested form not described; also called sdAb 17; not shown: Fc part implied by anti-human Fc capture and anti-human IgG1 Fc detection) VHH: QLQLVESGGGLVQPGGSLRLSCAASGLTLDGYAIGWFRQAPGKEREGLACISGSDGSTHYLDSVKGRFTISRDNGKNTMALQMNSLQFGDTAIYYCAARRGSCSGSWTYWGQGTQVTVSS",
    "METRIC_NAME": "log10(koff)",
    "TEST_RESULT": -2.92
  },
  {
    "BINDER": "sdAb No. 8 (VHH, Fc of the tested form not described; not shown: Fc part implied by anti-human Fc capture) VHH: QLQLVESGGGLVQPGGSLRLSCAASGFTLDYYAIGWFRQAPGKEREGVSCISSSDGSTYYADSVKGRFTISRDNAKNTVYLQMNSLKPEDTAIYYCARDSLSGSGYGCRGPYDYWGQGTQVTVSS",
    "METRIC_NAME": "log10(koff)",
    "TEST_RESULT": -3.56
  }
]

Task: Please report the recorded log10(koff) for sdAb No. 21 (VHH, Fc of the tested form not described; also called sdAb 21; not shown: Fc part implied by anti-human Fc capture) VHH: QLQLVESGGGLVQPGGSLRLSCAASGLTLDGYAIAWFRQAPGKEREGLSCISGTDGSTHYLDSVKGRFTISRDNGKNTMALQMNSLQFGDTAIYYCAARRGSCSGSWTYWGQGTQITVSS .
Output: -2.75

Task: Which log10(koff) value is on record for sdAb No. 73 (VHH, Fc not described; also called sdAb 73; not shown: Fc part implied by anti-human Fc capture) VHH: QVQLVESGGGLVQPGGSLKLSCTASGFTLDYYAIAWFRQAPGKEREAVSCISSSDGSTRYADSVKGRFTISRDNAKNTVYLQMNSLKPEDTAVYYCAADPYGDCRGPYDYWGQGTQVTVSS ?
Output: -3.01

Task: Endpoint output: log10(koff) of sdAb No. 25 (VHH, Fc of the tested form not described; also called sdAb 25; sdAb #25; not shown: Fc part implied by anti-human Fc capture and anti-human IgG Fc detection) VHH: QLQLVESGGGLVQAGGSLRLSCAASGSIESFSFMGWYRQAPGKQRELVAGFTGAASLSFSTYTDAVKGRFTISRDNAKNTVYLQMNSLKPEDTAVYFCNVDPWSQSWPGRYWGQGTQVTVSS . Value?
Output: -3.97

Task: Which log10(koff) value belongs to sdAb No. 24 (VHH, Fc of the tested form not described; also called sdAb 24; not shown: Fc part implied by anti-human Fc capture) VHH: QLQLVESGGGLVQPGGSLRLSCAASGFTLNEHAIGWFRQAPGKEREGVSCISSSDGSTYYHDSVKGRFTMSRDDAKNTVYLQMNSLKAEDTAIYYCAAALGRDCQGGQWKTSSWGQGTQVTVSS ?
Output: -4.47

Task: Would you mind telling me what log10(koff) value was observed for sdAb No. 27 (VHH, Fc of the tested form not described; also called sdAb 27; not shown: Fc part implied by anti-human Fc capture and anti-human IgG Fc detection) VHH: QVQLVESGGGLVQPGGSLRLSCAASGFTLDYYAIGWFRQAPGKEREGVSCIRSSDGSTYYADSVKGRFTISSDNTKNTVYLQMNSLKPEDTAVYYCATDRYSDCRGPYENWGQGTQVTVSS ?
Output: -6.39

Task: I'd like to know its log10(koff). The binder in question is sdAb No. 18 (VHH, Fc of the tested form not described; also called sdAb 18; not shown: Fc part implied by anti-human Fc capture) VHH: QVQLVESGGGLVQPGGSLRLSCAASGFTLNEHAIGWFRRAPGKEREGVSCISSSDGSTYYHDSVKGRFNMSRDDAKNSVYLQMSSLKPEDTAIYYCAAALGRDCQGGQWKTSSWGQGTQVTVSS
Output: -6.43
